These data points were gathered from patent US20220177581A1.

Quick list: MFI (FACS NALM6) per entry.
MEASURED_TARGET: T1, CD22 (UniProtKB-P20273) on CD22(+) cells (human, UniProt P20273 20-847)
T1 construct: Endogenous CD22 on the NALM6 and Raji cell lines; also called SIGLEC-2; BL-CAM
T1 sequence: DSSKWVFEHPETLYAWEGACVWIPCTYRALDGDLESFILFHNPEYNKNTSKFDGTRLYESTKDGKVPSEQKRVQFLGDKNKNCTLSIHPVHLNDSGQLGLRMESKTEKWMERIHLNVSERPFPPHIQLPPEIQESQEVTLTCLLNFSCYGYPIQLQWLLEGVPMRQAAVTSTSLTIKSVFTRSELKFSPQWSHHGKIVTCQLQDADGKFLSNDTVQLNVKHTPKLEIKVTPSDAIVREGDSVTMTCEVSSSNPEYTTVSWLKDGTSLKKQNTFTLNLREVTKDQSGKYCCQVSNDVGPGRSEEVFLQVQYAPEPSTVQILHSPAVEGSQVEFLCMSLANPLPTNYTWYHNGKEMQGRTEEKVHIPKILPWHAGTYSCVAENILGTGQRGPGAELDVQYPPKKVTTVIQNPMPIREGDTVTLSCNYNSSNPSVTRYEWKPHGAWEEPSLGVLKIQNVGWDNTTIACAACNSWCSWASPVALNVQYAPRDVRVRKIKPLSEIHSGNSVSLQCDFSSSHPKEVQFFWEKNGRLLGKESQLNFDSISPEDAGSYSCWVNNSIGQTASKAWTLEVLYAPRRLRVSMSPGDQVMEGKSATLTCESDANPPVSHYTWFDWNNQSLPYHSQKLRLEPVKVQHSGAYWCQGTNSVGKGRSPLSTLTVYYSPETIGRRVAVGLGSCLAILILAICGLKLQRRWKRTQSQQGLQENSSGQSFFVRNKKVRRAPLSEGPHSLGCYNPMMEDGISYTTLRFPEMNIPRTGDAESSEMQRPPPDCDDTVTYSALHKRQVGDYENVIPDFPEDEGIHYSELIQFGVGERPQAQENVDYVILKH
ASSAY_OVERVIEW: flow cytometry on CD22(+) NALM6 cells

{"BINDER": "humanized LL2 L2 + H11 (antibody, V domains shown, Human IgG1 frameworks) VH: QVQLVQSGAEVKKPGASVKMSCKASGYTFTSYWLHWVRQAPGQRLEWMGYINPRNDYTEYNQNFKDRATITADTSASTAYMELSSLRSEDTAVYYCARRDITTFYWGQGTTLTVSS VL: DIVLTQSPDSLAVSLGERVTMNCKSSQSVLYSANHKNYLAWYQQKPGQSPKLLIYWASTRESGVPDRFSGSGSGTDFTLTISSVQAEDVAIYYCHQYLSSWTFGGGTKLEIK", "MFI (FACS NALM6)": 36.3}
{"BINDER": "humanized LL2 L1 + H2 (antibody, V domains shown, Human IgG1 frameworks; also called H2L1) VH: QVQLQESGAEVKKPGASVKMSCKASGYTFTSYWLHWIRQAPGQRLEWIGYINPRNDYTKYSQKFQGRVTLTRDKSASTAYMELSSLRSEDTAVYYCARRDITTFYWGQGTTLTVSS VL: DIVLTQSPDSLAVSAGERVTMNCKSSQSVLYSANHKNYLAWYQQKPGQPPKLLIYWASTRESGVPDRFSGSGSGTDFTLTISSVQAEDVAIYYCHQYLSSWTFGGGTKLEIK", "MFI (FACS NALM6)": 32.8}
{"BINDER": "chimeric LL2 antibody (antibody, V domains shown, Murine LL2 variable domains with human constant domains (IgG1)) VH: QVQLQESGAELSKPGASVKMSCKASGYTFTSYWLHWIKQRPGQGLEWIGYINPRNDYTEYNQNFKDKATLTADKSSSTAYMQLSSLTSEDSAVYYCARRDITTFYWGQGTTLTVSS VL: DIQLTQSPSSLAVSAGENVTMSCKSSQSVLYSANHKNYLAWYQQKPGQSPKLLIYWASTRESGVPDRFTGSGSGTDFTLTISRVQVEDLAIYYCHQYLSSWTFGGGTKLEIK", "MFI (FACS NALM6)": 33.4}
